Target under test: purified biotin-tagged human CD36 (human, UniProt P16671 30-439, limits assumed, biotin tag, site not stated)
Sequence (P16671 30-439 limits assumed): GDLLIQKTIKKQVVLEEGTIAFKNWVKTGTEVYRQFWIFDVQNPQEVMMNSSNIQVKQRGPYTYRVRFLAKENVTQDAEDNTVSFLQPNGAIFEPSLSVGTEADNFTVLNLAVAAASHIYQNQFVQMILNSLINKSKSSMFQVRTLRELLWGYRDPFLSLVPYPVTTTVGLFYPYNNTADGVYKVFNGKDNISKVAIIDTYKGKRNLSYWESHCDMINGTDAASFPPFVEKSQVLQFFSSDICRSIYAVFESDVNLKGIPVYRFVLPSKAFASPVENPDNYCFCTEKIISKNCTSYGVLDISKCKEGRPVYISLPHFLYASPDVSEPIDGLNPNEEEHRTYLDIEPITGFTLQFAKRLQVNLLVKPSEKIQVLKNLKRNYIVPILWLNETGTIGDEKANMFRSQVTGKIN
Experimental protocol: AlphaScreen competition; competitor FA6-152 on acceptor beads
Measure name: pEC50
# reply with the number alone; pEC50 is -log10 of concentration in mol/L

Binder	Measure name	Value reported
29G04 (antibody, human IgG1, V domains shown, Chimeric: mouse variable regions on human IgG1 LALA (L234A/L235A); also called 029G04) VH: QVQLQQSGTELVKPGASVKLSCKASGYTFTSYWMHWVKQRPGQGLEWIGEIDPSDSHTNYNQKFKGKATLTVDKSSSTAYMQLSSLTSEDSAVYYCAPIYYGLDNWGQGTTLTVSS VL: DIVLTQSQKFMSTSVGDRVSVTCKASQNVGTNVAWYQQKPGQSPKALIYSASYRYSGVPDRFTGSGSGTDFTLTISNVQSEDLAEYFCQQYNSYPLTFGAGTKLELK	pEC50	7.47
13G04 (antibody, human IgG1, V domains shown, Chimeric: mouse variable regions on human IgG1 LALA (L234A/L235A); also called 013G04) VH: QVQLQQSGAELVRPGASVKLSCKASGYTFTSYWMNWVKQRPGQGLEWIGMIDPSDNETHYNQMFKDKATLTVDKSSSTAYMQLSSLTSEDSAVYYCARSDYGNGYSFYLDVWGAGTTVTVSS VL: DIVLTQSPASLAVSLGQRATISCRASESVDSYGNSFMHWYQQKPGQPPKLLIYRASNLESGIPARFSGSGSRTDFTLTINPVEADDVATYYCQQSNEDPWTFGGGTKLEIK	pEC50	7.33
26G04 (antibody, human IgG1, V domains shown, Chimeric: mouse variable regions on human IgG1 LALA (L234A/L235A)) VH: QVQMKESGAELMKPGASVKISCKATGYIFSNYWIEWLKERPGHGLEWIGDFLPGSSSANYNEKFKGKATFTADTSSNTAYMQLSSLTSEDSAVYYCVPFTVEVTDAMDYWGQGTSVTVSS VL: DIVLTQSHKFMSTSVGDRVSITCKASQDVSTAVAWYQQKPGQSPKLLIYSASYRYTGVPDRFTGSGSGTDFTFTISSVQAEDLAVYYCQQHYSTPRTFGGGTKLEIK	pEC50	8.58
15G04 (antibody, human IgG1, V domains shown, Chimeric: mouse variable regions on human IgG1 LALA (L234A/L235A); also called 015G04) VH: QVQLQQSGPELVKPGASVKISCKASGYTFSTSWMNWVKQRPGQGLEWIGRIYPGDGDTNYNGKFKGKATLTADTSSSTAYMQLSSLTSVDSAVYFCAREVYYGGYEDYGMDYWGQGTSVTVSS VL: DVVMTQTPLSLPVSLGDQASISCRSSQSLLHTNVNTYLHWYLQKPGQSPKLLIYKVSNRFSGVPDRFSGSGSGTDFTLKISRVEAEDLGVYFCSQSTHVPYTFGGGTKLEIK	pEC50	8.25

Would you kindly look at the next entry?
Q: Which measured pEC50 value corresponds to 31G04 (antibody, human IgG1, V domains shown, Chimeric: mouse variable regions on human IgG1 LALA (L234A/L235A)) VH: QVQLQQSGSELRSPGSSVKLSCKDFDSEVFPIAYMSWVRQKPGHGFEWIGDILPSIGSTIYGEKFEDKATLDADTVSNTAYLELNSLTSEDSAIYYCARDYYGSSYGYFDVWGAGTTVTVPS VL: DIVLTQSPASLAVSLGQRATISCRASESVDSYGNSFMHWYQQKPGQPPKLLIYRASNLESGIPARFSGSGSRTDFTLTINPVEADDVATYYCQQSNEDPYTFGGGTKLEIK ?
Result: 8.60
